Target: SARS-CoV-2 RBD protein (Sino Biological, Cat: 40592-V08B) (SARS-CoV-2, UniProt P0DTC2 319-541)
Test: BLI (Octet), mAb on Protein A sensor
property.name: koff (s⁻¹)
Quick reminder: number only, in s⁻¹, skip the unit.

Recall and state the measured koff for CoV2-33 (antibody, V domains shown) VH: QVQLVESGGGLVQPGRSLRLSCAASRFTFDDHAMHWVRQAPGKGLEWVSGISWNGGIIGYADSVKGRFTISRDNAKNSLYLQMNSLRAEDTALYYCAKGMGFGESNYYAMDVWGQGTMVTVSS VL: QSALTQPASVSGSPGQSITISCTGTSSDVGGYNYVSWYQQHPGKAPKLIIYDVSNRPSGVSNRFSGSKSGNTASLTISGLQAEDEAYYYCSSYTSISNLVVFGGGTKVTVL .
0.00137

Values were extracted from patent US20230399384A1.
